Recorded Intensity (%) values for a group of binders are listed next.
target: T1, biotin-labelled EZH2 protein (UniProt Q15910 1-746, limits assumed, biotin label (EZ-link NHS-PEO4-Biotinylation kit)); test: KDM2B peptide array probed with biotin-EZH2 1 ug/ml, SA-HRP/ECL;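 note: 100% is the highest background-corrected spot optical density on the membrane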;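 note: Background-corrected optical density of each spot on the membrane, given as percent of the brightest spot (100%), color developed for 5 minutes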
T1 construct: Probe in solution (1 ug/ml) on the KDM2B peptide microarray; also called NHS-PEO4-Biotinylation-labelled EZH2 protein; recombinant protein
T1 sequence (Q15910 whole entry): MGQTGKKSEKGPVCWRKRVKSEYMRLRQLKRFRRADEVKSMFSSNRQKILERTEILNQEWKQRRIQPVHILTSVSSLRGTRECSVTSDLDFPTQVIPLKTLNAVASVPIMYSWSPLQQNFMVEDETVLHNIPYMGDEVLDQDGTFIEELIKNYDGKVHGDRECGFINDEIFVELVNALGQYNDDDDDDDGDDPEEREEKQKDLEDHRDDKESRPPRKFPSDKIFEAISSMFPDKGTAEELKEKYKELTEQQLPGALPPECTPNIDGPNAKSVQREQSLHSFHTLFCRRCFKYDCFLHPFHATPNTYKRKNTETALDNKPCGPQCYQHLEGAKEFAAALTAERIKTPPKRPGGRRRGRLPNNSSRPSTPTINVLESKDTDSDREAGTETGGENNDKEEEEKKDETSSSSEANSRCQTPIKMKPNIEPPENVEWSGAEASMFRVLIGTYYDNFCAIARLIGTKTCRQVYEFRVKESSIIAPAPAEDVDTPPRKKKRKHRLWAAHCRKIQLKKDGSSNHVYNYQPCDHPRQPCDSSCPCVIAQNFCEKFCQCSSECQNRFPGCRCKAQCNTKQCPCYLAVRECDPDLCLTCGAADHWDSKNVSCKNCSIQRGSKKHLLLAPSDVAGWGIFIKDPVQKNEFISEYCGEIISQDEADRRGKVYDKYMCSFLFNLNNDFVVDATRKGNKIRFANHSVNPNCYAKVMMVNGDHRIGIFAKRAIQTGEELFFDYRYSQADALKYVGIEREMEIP
Field: numeric (%). Do not append units.

- CERPHRFSKGLNGTP [peptide 199]: 0.18
- PMQLRIYEIEDRTRV [peptide 68]: 6.33
- GEEPKRPPGICERPH [peptide 197]: 0
- LANKPLRRFKQEPED [peptide 177]: 0
- EPESEGEEPKRPPGI [peptide 196]: 1.04

Measured Intensity (%) of LSGCSWIAVSALCSS [peptide 232] : 95.4

Measured Intensity (%) of RTECGECHFCKDMKK [peptide 125] : 1.57
